Taken from patent US20170296640A1.

assayed-target: T1, HLA-A*02:01 (peptide-receptive MHC class I monomer after UV cleavage of the UV-sensitive ligand) (human)
T1 construct: MHC monomers loaded by UV-ligand exchange and captured on streptavidin plates
protocol-details: UV ligand-exchange ELISA; exchange yield grade (+ >=10%, ++ >=20%, +++ >=50%, ++++ >=75%)
measured-parameter: peptide exchange yield

[
  {
    "binder": "LQFDGIHVV [LQFDGIHVV (SEQ ID NO: 301)]",
    "readout-value": "50 to 75%"
  },
  {
    "binder": "YLAPENGYLM [YLAPENGYLM (SEQ ID NO: 108)]",
    "readout-value": "50 to 75%"
  },
  {
    "binder": "YLGDLIMAL [YLGDLIMAL (SEQ ID NO: 252)]",
    "readout-value": "50 to 75%"
  }
]

(Q) Please report the recorded peptide exchange yield for YLLDFEDRL [YLLDFEDRL (SEQ ID NO: 200)] .
(A) ≥ 75%

(Q) Which measured peptide exchange yield value corresponds to LLSDPTPGA [LLSDPTPGA (SEQ ID NO: 14)] ?
(A) 20 to 50%

(Q) Fill blank: measured peptide exchange yield of the binder FLAVSLPLL [FLAVSLPLL (SEQ ID NO: 208)] is ____.
(A) 50 to 75%
